The values you see were collected from patent US6586216B2.

Target: Bacillus subtilis glutamine PRPP amidotransferase, wild type (Bacillus subtilis, UniProt P00497)
Construct: Enzymes of the B. subtilis class are synthesized with an NH2 terminal propeptide; made in house; host or cells: E. coli strain TX158 (purF), plasmid pGZ1
Sequence (P00497 12-476): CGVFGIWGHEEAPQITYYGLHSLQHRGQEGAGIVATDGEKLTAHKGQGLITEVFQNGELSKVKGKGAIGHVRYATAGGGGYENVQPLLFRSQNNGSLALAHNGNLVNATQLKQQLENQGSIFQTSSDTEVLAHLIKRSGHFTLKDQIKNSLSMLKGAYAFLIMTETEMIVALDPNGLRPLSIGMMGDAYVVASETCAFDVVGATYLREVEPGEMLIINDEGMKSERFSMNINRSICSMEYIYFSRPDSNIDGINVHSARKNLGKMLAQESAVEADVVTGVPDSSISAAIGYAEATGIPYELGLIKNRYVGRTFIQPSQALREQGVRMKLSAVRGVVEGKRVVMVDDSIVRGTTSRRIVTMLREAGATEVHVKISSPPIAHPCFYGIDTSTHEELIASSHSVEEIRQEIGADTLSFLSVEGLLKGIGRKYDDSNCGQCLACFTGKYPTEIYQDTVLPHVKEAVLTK
Assay: Nucleotide binding by equilibrium dialysis, wild type enzyme
Settings: no fixed nucleotide; binding too weak to detect; read-out: Kd
pKd: −log10 of the molar value.
Property: pKd

Please report the recorded pKd for `Nc1nc2c(ncn2[C@@H]2O[C@H](COP(=O)(O)O)[C@@H](O)[C@H]2O)c(=O)[nH]1` . < 3.30

* * *

Target: Bacillus subtilis glutamine PRPP amidotransferase variant S347A (Bacillus subtilis, UniProt P00497, S358A)
Construct: Enzymes of the B. subtilis class are synthesized with an NH2 terminal propeptide; made in house; host or cells: E. coli strain TX158 (purF), plasmid pBsF/S347A
Sequence (P00497 12-476 S358A): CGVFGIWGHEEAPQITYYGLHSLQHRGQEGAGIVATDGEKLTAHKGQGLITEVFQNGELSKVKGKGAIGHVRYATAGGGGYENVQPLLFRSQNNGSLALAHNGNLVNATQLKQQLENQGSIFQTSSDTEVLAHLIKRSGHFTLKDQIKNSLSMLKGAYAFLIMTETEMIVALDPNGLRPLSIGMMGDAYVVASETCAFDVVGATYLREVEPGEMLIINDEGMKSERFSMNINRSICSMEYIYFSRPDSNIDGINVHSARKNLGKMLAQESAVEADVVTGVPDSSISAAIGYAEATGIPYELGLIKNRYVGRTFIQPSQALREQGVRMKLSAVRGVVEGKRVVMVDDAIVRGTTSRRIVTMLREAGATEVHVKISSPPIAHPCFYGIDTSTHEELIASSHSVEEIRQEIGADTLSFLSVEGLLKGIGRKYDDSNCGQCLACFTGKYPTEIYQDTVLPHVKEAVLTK
Assay: biochemical
Format: biochemical
Settings: I0.5, no fixed nucleotide; 2.5 mM PRPP, pH 8.0, 37° C.
# pIC50 listing for each entry below
Entry type: numeric. Quantity: pIC50, the -log10 of concentration in molar units.

In the examples that follow, each entry is paired with its recorded pIC50.
Compound	pIC50
Nc1nc2c(ncn2[C@@H]2O[C@H](COP(=O)(O)O)[C@@H](O)[C@H]2O)c(=O)[nH]1 [GMP]	1.85
Nc1ncnc2c1ncn2[C@@H]1O[C@H](COP(=O)(O)O)[C@@H](O)[C@H]1O [AMP]	2.82

We next turn to a different compound, shown below.
Please report the recorded pIC50 for Nc1ncnc2c1ncn2[C@@H]1O[C@H](COP(=O)(O)OP(=O)(O)O)[C@@H](O)[C@H]1O [ADP] . 2.09
